Would you mind telling me the reported exon inclusion enrichment index of each entry?
B1: mRNA-splicing (parent)
chain: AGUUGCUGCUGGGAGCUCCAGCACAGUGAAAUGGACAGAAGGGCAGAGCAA

- Variants of: B1
- test_name: exon inclusion enrichment index; higher = more inclusion; WT1 exon 5 minigene, HEK293
Keep it simple and answer with nothing but the number.

Annotate the variant AGUUGCUGCUGGGAGCUCCAGCACAGUGAAAUGGACAGAAAGGCAGAGCAA with its measured exon inclusion enrichment index.
0.0829

Annotate the variant AGUUCUUCUCGGGAGCUCCAGCACAGUGAAAUGGGUAGAAGGGCAGAGCAA with its measured exon inclusion enrichment index.
0.016

Annotate the variant AGUUUCUUUUGGGAGCUCCAUCACAGUGAAAUGGACAGAAGGGCAGAGCAA with its measured exon inclusion enrichment index.
0.078

Annotate the variant ACAUGACGACGGGAGCUCCAGCACAGUGAAAUGGACAGAAGGGCAGAGCAA with its measured exon inclusion enrichment index.
2.73

Annotate the variant AGUUCGCGCCGGGAGCUCCAGCACAGUGAAAUGGUUAGAAGGGCAGAGCAA with its measured exon inclusion enrichment index.
0.0671

Annotate the variant ACAUGAAGAAGGGAGCUCCAGCACAGUGAAAUGGACAGAAGGGCAGAGCAA with its measured exon inclusion enrichment index.
0.863

Annotate the variant AGUUGACGACGGGAGCUCCAGCACAGUGAAAUCAACAGAAGGGCAGAGCAA with its measured exon inclusion enrichment index.
2.31

Annotate the variant AGUUCACACAGGGAGCUCCAGCACAGUGAAAUGGACAGAAGGGGCGAGCAA with its measured exon inclusion enrichment index.
0.204

Annotate the variant AGUUGCUGCUGGGAGCUCCAGCAGGGUGAAAUGGACAGAAGGGCAGAGCAA with its measured exon inclusion enrichment index.
0.0325

Annotate the variant AGUGUUAUAUGGGAGCUCCAGCACAGUGAAAUGGACAGAAGGGCAGAGCAA with its measured exon inclusion enrichment index.
0.0955

Annotate the variant AGGAAUAUAUGGGAGCUCCAGCACAGUGAAAUGGACAGAAGGGCAGAGCAA with its measured exon inclusion enrichment index.
0.0777

Annotate the variant AGUUAGCUAUGGGAGCUCCAGCACAGUGAAAUGGACAGAAGGGCAGAGCAA with its measured exon inclusion enrichment index.
0.0245

Annotate the variant AGUUGCUGCUGGAGGCUCCAGCACAGUGAAAUGGACAGAAGGGCAGAGCAA with its measured exon inclusion enrichment index.
0.249

Annotate the variant AGUUCUUCUCUCGAGCUCCAGCACAGUGAAAUGGACAGAAGGGCAGAGCAA with its measured exon inclusion enrichment index.
0.558

Annotate the variant AGUUGCUGCUGGGAGCUCCAGCACAAUGAAAUGGACAGAAGGGCAGAGCAA with its measured exon inclusion enrichment index.
0.0943

Annotate the variant AGUUCACACAGGGAGCUCCAGCACCAUGAAAUGGACAGAAGGGCAGAGCAA with its measured exon inclusion enrichment index.
0.352

Annotate the variant AGUUGAAGAAGGGAGCUUUAGCACAGUGAAAUGGACAGAAGGGCAGAGCAA with its measured exon inclusion enrichment index.
0.00807

Annotate the variant AGUUGCUGCUGGGAGCUCCAGCACAGUGAAUGGGACAGAAGGGCAGAGCAA with its measured exon inclusion enrichment index.
0.056

Annotate the variant AGUUCACACAGGGAGCUCCAGCACAGUGAAUGGGACAGAAGGGCAGAGCAA with its measured exon inclusion enrichment index.
0.0217

Annotate the variant AGUUUCUUUUGGGAGCUCCAGCACAGUGAAAUGGAUCGAAGGGCAGAGCAA with its measured exon inclusion enrichment index.
0.0658

Annotate the variant AGUUUCUUUUGGGAUUUCCAGCACAGUGAAAUGGACAGAAGGGCAGAGCAA with its measured exon inclusion enrichment index.
0.0287

Annotate the variant AGUUAGAAAUGGGAGCUCCAGCACAGUGAAAUGGACAGAAGGGCAGAGCAA with its measured exon inclusion enrichment index.
0.0263

Annotate the variant AGUUUCUUUUGGGAGCUCCAGCACAGUGAAAUGGAAAGAAGGGCAGAGCAA with its measured exon inclusion enrichment index.
0.0987

Annotate the variant AGUUCGCGCAAGGAGCUCCAGCACAGUGAAAUGGACAGAAGGGCAGAGCAA with its measured exon inclusion enrichment index.
2.25

Annotate the variant AGUUACCACCGGGAGCUUUAGCACAGUGAAAUGGACAGAAGGGCAGAGCAA with its measured exon inclusion enrichment index.
0.0421

Annotate the variant AGUUGAAGAAGGGAGCUCCGACACAGUGAAAUGGACAGAAGGGCAGAGCAA with its measured exon inclusion enrichment index.
1.2

Annotate the variant AGUUUCUUUUGGGAGCUCCAGCACAGUGAAAUGGACAGAAGGGCUCAGCAA with its measured exon inclusion enrichment index.
0.11

Annotate the variant AGUUCGCGCCGGGAGCUCCAGCACAGUGAAAUGGACAGAAGGGCUGAGCAA with its measured exon inclusion enrichment index.
4.56

Annotate the variant AGUUCUUCUCGGGAGCUCCAGCGUAGUGAAAUGGACAGAAGGGCAGAGCAA with its measured exon inclusion enrichment index.
0.696

Annotate the variant AGUUUCUUUUGGUAGCUCCAGCACAGUGAAAUGGACAGAAGGGCAGAGCAA with its measured exon inclusion enrichment index.
0.00294
